system: ALL-SIL (T-Lymphoblastic Leukemia); assay: Bliss excess, mean over the matrix (fraction); higher = more synergy;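 note: after 72 h of two-drug dosing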
Classify as follows. Reported Bliss excess greater than or equal to -0.02: yes. Reported Bliss excess below: no.

compound="CC(=O)Nc1cccc(-n2c(=O)n(C3CC3)c(=O)c3c(Nc4ccc(I)cc4F)n(C)c(=O)c(C)c32)c1 [Trametinib] + Cc1nc(-c2cn3c(n2)-c2ccc(-c4cnn(C(C)(C)C(N)=O)c4)cc2OCC3)n(C(C)C)n1 [Taselisib] (first compound max 1 µM, 7x7, partner max 10 µM)" targetorsystem="ALL-SIL (T-Lymphoblastic Leukemia)" answerlabel=yes

Request: hey, is Bliss excess for this one >= -0.02? Cc1nc(Nc2ncc(C(=O)Nc3c(C)cccc3Cl)s2)cc(N2CCN(CCO)CC2)n1 [Dasatinib] + CC(=O)Nc1cccc(-n2c(=O)n(C3CC3)c(=O)c3c(Nc4ccc(I)cc4F)n(C)c(=O)c(C)c32)c1 [Trametinib] (first compound max 2 µM, 7x7, partner max 1 µM)
Response: yes

Request: CC(=O)c1c(C)c2cnc(Nc3ccc(N4CCNCC4)cn3)nc2n(C2CCCC2)c1=O [Palbociclib] + CC1(C)CCC(CN2CCN(c3ccc(C(=O)NS(=O)(=O)c4ccc(NCC5CCOCC5)c([N+](=O)[O-])c4)c(Oc4cnc5[nH]ccc5c4)c3)CC2)=C(c2ccc(Cl)cc2)C1 [Venetoclax] (first compound max 10 µM, 7x7, partner max 1 µM) ?
Response: yes

Request: CC1(C)CCC(CN2CCN(c3ccc(C(=O)NS(=O)(=O)c4ccc(NCC5CCOCC5)c([N+](=O)[O-])c4)c(Oc4cnc5[nH]ccc5c4)c3)CC2)=C(c2ccc(Cl)cc2)C1 [Venetoclax] + CN(C)CCCOc1ccc(-c2ccc3ncc4c(c3c2)n(C2CCOCC2)c(=O)n4C)cn1 [AZD0156] (first compound max 1 µM, 7x7, partner max 1 µM) ?
Response: yes

Request: CCN(CCO)CCCOc1ccc2c(Nc3cc(CC(=O)Nc4cccc(F)c4)[nH]n3)ncnc2c1 [AZD2811] + C=CCn1c(=O)c2cnc(Nc3ccc(N4CCN(C)CC4)cc3)nc2n1-c1cccc(C(C)(C)O)n1 [AZD1775] (first compound max 1 µM, partner max 1 µM) ?
Response: no

Request: CC(=O)c1c(C)c2cnc(Nc3ccc(N4CCNCC4)cn3)nc2n(C2CCCC2)c1=O [Palbociclib] + Cn1cnc2c(F)c(Nc3ccc(Br)cc3Cl)c(C(=O)NOCCO)cc21 [Selumetinib] (first compound max 10 µM, 7x7, partner max 10 µM) ?
Response: no

Request: COc1cccc(OCCCN)c1-c1cc(Nc2cnc(C#N)cn2)n[nH]1 [Prexasertib] + O=C(c1cc(Cc2n[nH]c(=O)c3ccccc23)ccc1F)N1CCN(C(=O)C2CC2)CC1 [Olaparib] (first compound max 1 µM, 7x7, partner max 10 µM) ?
Response: no
